- assay-protocol: NCI Yeast Anticancer Drug Screen. Data for the rad52 strain (AID 147);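 further: 0% = growth of vehicle-treated control cultures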
- setup-conditions: S. cerevisiae rad52 mutant growth inhibition; at 11.0 µM; stronger effect = higher value
The panel holds about 79,000 compounds, 15% with a hit somewhere; the sample as a whole holds those more often.
Would you mind telling me the reported growth inhibition of each entry?
Entry rule: numbers only, all in %.

Data request: Data request, read-out growth inhibition, for CSC1=NNC(SC)=NN1
Data returned: 3

Data request: Now the molecule FC(F)(F)c1cc(NC(=S)N2c3ccccc3-n3cccc3C2c2cccnc2)cc(C(F)(F)F)c1 (centres undefined)
Data returned: -9

Data request: Now this one: OC(c1ccc(F)cc1)(c1ccc(F)cc1)C1CC1
Data returned: -47

Data request: Consider next the molecule COc1cc(C2C3=C(COC3=O)Oc3cc4c(cc32)OCO4)ccc1O (centres undefined) in the same way.
Data returned: 7

Data request: Would you kindly repeat that for CCCCCCCCCCCCCCCCCCNC ?
Data returned: 0

Data request: Another molecule: C=C1CC(Cn2cc(Br)c(=O)[nH]c2=O)(c2ccc(-c3ccccc3)cc2)OC1=O (centres undefined)
Data returned: 21

Data request: Next molecule: Cc1ccc(S(=O)(=O)NNC(=S)Nc2cccc3ccccc23)cc1
Data returned: 3

Data request: And COC(=O)c1ccc([N+](=O)[O-])c(O)c1 ?
Data returned: 17

Data request: Also, O=[N+]([O-])c1ccc([N+]2=NC(c3ccccc3)=NN(c3ccccc3)C2)cc1 please.
Data returned: 10

Data request: Same for Nc1ncncc1C(C1=C(O)COC1=O)C1=C(O)COC1=O
Data returned: -1

Data request: Then this molecule: O=CNc1ccc2c(c1)C(=O)c1ccccc1-2
Data returned: 40

Data request: Entry to check: COCCOC(=O)CCn1cc(F)c(=O)[nH]c1=O
Data returned: 11

Data request: What do you have for COc1ccccc1/C=C1\Sc2scc(-c3cccc([N+](=O)[O-])c3)[n+]2C1=O ?
Data returned: 98

Data request: Follow-up entry: O=C1C2C(C(=O)N1c1ccc(OCc3ccccc3)cc1)C1c3ccccc3C2C2CCCCN21 (centres undefined)
Data returned: 3

Data request: Likewise for c1ccc2c(c1)c1ncccc1c1nccnc21 ?
Data returned: 26

Data request: And COc1cc(C2c3cc4c(cc3OC(Nc3ccccc3)C2C)OCO4)cc(OC)c1O (centres undefined) ?
Data returned: 0

Data request: Same thing, different molecule: CCOC(=O)[C@H]1Nc2ccccc2C2c3ccccc3CC21 (some centres undefined)
Data returned: -10

Data request: # iterate: CCCCCCCCCCC1CCC(=O)O1 (centres undefined)
Data returned: -1

Data request: One more molecule: CC(O)C(O)C(O)C(/C=N\Nc1ccccc1)=N/Nc1ccccc1 (centres undefined)
Data returned: 12

Data request: What about this molecule? NNC(=O)CCc1ccc2ccc3ccccc3c2c1
Data returned: 1

Data request: Follow-up item: COc1cc2ccc(/C=C\[N+](=O)[O-])cc2cc1OC
Data returned: 70

Data request: Please give the result for COC(=O)c1cc(-c2ccc(C)cc2)[nH]c(=O)c1C#N too.
Data returned: 1

Data request: Further, for CC[C@@]1(O)C(=O)OCc2c1cc1n(c2=O)Cc2cc3c(CN(C)C)c(O)ccc3nc2-1 ?
Data returned: 41

Data request: Lookup CC(=O)OCc1ccc(O)c(C=O)c1
Data returned: -10

Data request: Next up: CC(C)C1=CCC2C(=C1)CCC1C(C)(C(=O)O)CCCC21C (centres undefined) (tested in a mixture with another compound)
Data returned: 12

Data request: Ok, now COP(=O)(OC)/C(=C\C1=CN(C(c2ccccc2)(c2ccccc2)c2ccccc2)CN1)NC=O
Data returned: -11

Data request: Also check O=C1c2ccccc2C(=O)c2cc(CBr)ccc21
Data returned: 21

Data request: # iterate: CN(CCc1ccccn1)c1ccc2c(c1)Cc1ccccc1-2
Data returned: 54

Data request: What about COC1C=COC2(C)Oc3c(C)c(O)c4c(c3C2=O)/C(=N/C2CCC(O)OC2C)C=C(NC(=O)/C(C)=C\C(=O)C2CC2C(O)C(C)C(O)C(C)C(OC(C)=O)C1C)C4=O (centres undefined) ?
Data returned: -4

Data request: Another molecule to check: Clc1cccc(C(Nc2nncs2)Nc2nncs2)c1Cl
Data returned: 9

Data request: Follow-up item: CN(C)c1ccc(C(C#N)=C(C#N)C#N)cc1
Data returned: 2

Data request: Subsequent entry: CC(Br)C(=O)c1ccc2cc(Br)c3ccccc3c2c1 (centres undefined)
Data returned: -2

Data request: And for Nc1ccccc1CC(O)C(=O)O (centres undefined) ?
Data returned: 14

Data request: Same lookup for O=C(OCC=C1CCCC1)c1cc([N+](=O)[O-])cc([N+](=O)[O-])c1 , please.
Data returned: 21
